# target of assay: Cytochrome P450 2C9 (Homo sapiens, UniProt P11712)
# Sequence (P11712 whole entry): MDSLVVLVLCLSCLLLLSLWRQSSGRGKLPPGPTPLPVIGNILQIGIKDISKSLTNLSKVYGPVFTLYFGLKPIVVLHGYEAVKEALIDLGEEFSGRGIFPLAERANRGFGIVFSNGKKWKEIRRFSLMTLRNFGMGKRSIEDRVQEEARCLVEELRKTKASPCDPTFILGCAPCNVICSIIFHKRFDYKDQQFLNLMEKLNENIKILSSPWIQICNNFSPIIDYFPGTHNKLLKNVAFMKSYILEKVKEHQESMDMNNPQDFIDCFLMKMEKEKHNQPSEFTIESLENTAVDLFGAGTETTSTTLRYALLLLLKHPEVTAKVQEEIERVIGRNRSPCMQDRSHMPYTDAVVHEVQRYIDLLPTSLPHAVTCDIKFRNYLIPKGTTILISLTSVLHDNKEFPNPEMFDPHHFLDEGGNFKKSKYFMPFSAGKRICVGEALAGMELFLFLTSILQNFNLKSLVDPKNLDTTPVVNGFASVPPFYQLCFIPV
# method: Inhibition of CYP2C9
# Format: ADME
Give measured pIC50 for each item. Keep answers brief.
Numbers only, as −log10 of the molar value.

{"compound": "Cc1ncoc1-c1nnc(SCCCN2CC3CC3(c3ccc(S(F)(F)(F)(F)F)cc3)C2)n1C (stereo in doubt; 8)", "pIC50": 5.05}

Next, consider the following compound.
Lookup: Would you mind telling me what pIC50 value was observed for Cc1ncoc1-c1nnc(SCCCN2CC3CC3(c3cccc(S(F)(F)(F)(F)F)c3)C2)n1C (single isomer, unassigned; 12) ?
Found: 5.70

---

Measurement record for Cytochrome P450 2D6 (Homo sapiens); quantity recorded: IC50.
Give bare numbers, in µM.

{"compound": "Cc1ncoc1-c1nnc(SCCCN2CC3CC3(c3cccc(S(F)(F)(F)(F)F)c3)C2)n1C (single isomer, unassigned; 11)", "units of measure": "µM", "IC50": 5}

# ---- query compound ----
Lookup: Recorded IC50 for Cc1ncoc1-c1nnc(SCCCN2CC3CC3(c3ccc(S(F)(F)(F)(F)F)cc3)C2)n1C (racemic) , please?
Found: 8

---

# target of assay: D(3) dopamine receptor (Homo sapiens, UniProt P35462)
# Sequence (P35462 whole entry): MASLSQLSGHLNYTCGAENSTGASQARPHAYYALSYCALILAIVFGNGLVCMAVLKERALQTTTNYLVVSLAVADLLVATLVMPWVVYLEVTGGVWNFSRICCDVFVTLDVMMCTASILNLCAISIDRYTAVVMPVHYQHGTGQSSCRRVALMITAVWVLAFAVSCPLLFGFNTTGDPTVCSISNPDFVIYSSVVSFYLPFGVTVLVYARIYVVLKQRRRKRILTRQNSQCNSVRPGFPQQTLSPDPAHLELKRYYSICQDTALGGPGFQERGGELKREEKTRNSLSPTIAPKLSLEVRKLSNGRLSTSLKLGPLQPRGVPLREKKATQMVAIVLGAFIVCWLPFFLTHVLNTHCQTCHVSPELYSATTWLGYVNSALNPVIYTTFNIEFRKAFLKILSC
# method: Antagonist activity at dopamine D3 receptor assessed as inhibition of dopamine-induced [35S]GTPgammaS binding […]
Record form. Attribute: pKi. Fill in for each entry.
One number for each entry, as −log10 of the molar value.

{"compound": "Cc1ncoc1-c1nnc(SCCCN2CC3CC3(c3ccc(S(F)(F)(F)(F)F)cc3)C2)n1C (single isomer, unassigned)", "observable": "pKi", "value reported": 7.90}
{"compound": "Cc1ncoc1-c1nnc(SCCCN2CC3CC3(c3cccc(S(F)(F)(F)(F)F)c3)C2)n1C (racemic)", "observable": "pKi", "value reported": 8.90}
{"compound": "Cc1ncoc1-c1nnc(SCCCN2CC3CC3(c3cccc(S(F)(F)(F)(F)F)c3)C2)n1C (single isomer, unassigned; 12)", "observable": "pKi", "value reported": 9.20}
{"compound": "Cc1ncoc1-c1nnc(SCCCN2CC3CC3(c3ccc(S(F)(F)(F)(F)F)cc3)C2)n1C (stereo in doubt; 8)", "observable": "pKi", "value reported": 9.00}

# input for lookup
Lookup: Requested read-out pKi, target or system D(3) dopamine receptor (Homo sapiens, UniProt P35462), entry Cc1ncoc1-c1nnc(SCCCN2CC3CC3(c3cccc(S(F)(F)(F)(F)F)c3)C2)n1C (single isomer, unassigned; 11)
Found: 7.80

---

# method: Bioavailability in rat
# Type: ADME, organism-based
# settings: in vivo
observable: bioavailability (%)
Give bare numbers, in %.

Lookup: Record request: bioavailability value, item Cc1ncoc1-c1nnc(SCCCN2CC3CC3(c3ccc(S(F)(F)(F)(F)F)cc3)C2)n1C (racemic)
Found: 87

---

In what follows, each item is paired with its IC50 for UniProtKB P10635.

{"compound": "Cc1ncoc1-c1nnc(SCCCN2CC3CC3(c3ccc(S(F)(F)(F)(F)F)cc3)C2)n1C (single isomer, unassigned)", "value reported": "> 10 µM"}
{"compound": "Cc1ncoc1-c1nnc(SCCCN2CC3CC3(c3ccc(S(F)(F)(F)(F)F)cc3)C2)n1C (stereo in doubt; 8)", "value reported": "> 10 µM"}

In the following, a different compound is considered.
Lookup: Notebook entry, UniProtKB P10635 assay: IC50 of Cc1ncoc1-c1nnc(SCCCN2CC3CC3(c3cccc(C(F)(F)F)c3)C2)n1C (racemic) = ?
Found: > 10 µM
